Hello, the source for this data is patent US7265119B2, in case you need it.

# ASSAY METHOD TEXT: aqueous solubility
# Format: physicochemical
# CONDITION LABEL: water, pH 3.3, water
READOUT: solubility

Prompt: Can you look up the measured solubility of c1cnc2cc3c(cc2n1)C1CNCC3C1 [Form B] for me?
Completion: ~156 mg/mL
